Quick reference for pIC50 among some compounds
Target: DOCK2DHR-2 (lobe B and lobe C of the DHR-2 domain of DOCK2) (Homo sapiens)
Construct: polypeptide fragments corresponding to a DHR-2 domain including the lobe B and the lobe C of DOCK2; Histidine-SUMO (N); made in house; host or cells: E. coli Arctic express DE3 (pET28a); Rac in E. coli BL21 DE3 (pGEX-6P-1)
Sequence (Q92608 1196-1622): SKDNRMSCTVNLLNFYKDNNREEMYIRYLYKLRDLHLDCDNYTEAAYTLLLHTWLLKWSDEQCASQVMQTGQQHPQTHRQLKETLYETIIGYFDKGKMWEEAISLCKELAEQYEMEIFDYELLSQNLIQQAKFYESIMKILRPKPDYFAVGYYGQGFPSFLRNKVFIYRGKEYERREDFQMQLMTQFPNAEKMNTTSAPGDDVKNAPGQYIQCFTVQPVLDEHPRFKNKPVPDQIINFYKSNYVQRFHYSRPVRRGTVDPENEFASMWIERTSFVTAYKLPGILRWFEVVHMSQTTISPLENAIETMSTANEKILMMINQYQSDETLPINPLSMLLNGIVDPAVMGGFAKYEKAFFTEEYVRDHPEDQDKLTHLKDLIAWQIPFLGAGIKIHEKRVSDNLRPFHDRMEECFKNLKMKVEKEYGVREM
Assay: in-vitro GEF assay, Rac activation by DOCK2 DHR-2 domain with various steroid compounds (Experimental Example 2)
Assay type: biochemical
Conditions: IC50 against the Rac activation by DOCK2DHR-2, Experimental Example 2, Table 1
pIC50: −log10 of the molar value.
REPORTED METRIC: pIC50

# COMPOUND, REPORTED METRIC, MEASUREMENT QUALIFIER, OBSERVED MEASUREMENT
data = [
    ("C[C@]12CC[C@H](O)CC1=CC[C@@H]1[C@@H]2CC[C@]2(C)C(=O)CC[C@@H]12 [DHEA, dehydroepiandrosterone]", "pIC50", "<", 3.70),
    ("CC(C)CCC[C@@H](C)[C@H]1CC[C@H]2[C@@H]3CC=C4C[C@@H](OS(=O)(=O)O)CC[C@]4(C)[C@H]3CC[C@]12C [C3S, cholesterol 3-sulfate]", "pIC50", "=", 5.70),
]

* * *

Target: DOCK2 (Homo sapiens, UniProt Q92608)
Sequence (Q92608 1196-1622): as above
REPORTED METRIC: IC50 (µM)

# COMPOUND, REPORTED METRIC, UNIT STRING, OBSERVED MEASUREMENT
records = [
    ("CC(C)CCC[C@@H](C)[C@H]1CC[C@H]2[C@@H]3CC=C4C[C@@H](OS(=O)(=O)O)CC[C@]4(C)[C@H]3CC[C@]12C [C3S, cholesterol 3-sulfate]", "IC50", "µM", 6.7),
]

* * *

Biological target: Trio (Homo sapiens, UniProt O75962)
pIC50: −log10 of the molar value.

# COMPOUND, pIC50
measured = [
    ("CC(C)CCC[C@@H](C)[C@H]1CC[C@H]2[C@@H]3CC=C4C[C@@H](OS(=O)(=O)O)CC[C@]4(C)[C@H]3CC[C@]12C [C3S, cholesterol 3-sulfate]", "< 3.52"),
]
